Target: human glucagon receptor (human, UniProt P47871 26-477)
Assay: cell-based or functional assay
Give cAMP EC50 (1.0% HSA) for every item shown.

Q) Give cAMP EC50 (1.0% HSA) for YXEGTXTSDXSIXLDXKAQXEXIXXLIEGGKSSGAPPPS (Aib2, αMeF(2F)6, 4Pal10, αMeL13, Orn16, Aib20, 2FPhe22, D-Glu24, αMeY25; acylated K17, K31 (groups as in name); C-terminal amide)
A) > 9.95 µM

Q) Give cAMP EC50 (1.0% HSA) for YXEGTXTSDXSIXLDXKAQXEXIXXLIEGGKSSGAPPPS (Aib2, αMeF(2F)6, 4Pal10, αMeL13, Orn16, Aib20, 1Nal22, D-Glu24, αMeY25; acylated K17, K31 (groups as in name); C-terminal amide)
A) > 9.95 µM

Q) Give cAMP EC50 (1.0% HSA) for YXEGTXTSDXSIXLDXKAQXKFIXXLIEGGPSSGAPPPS (Aib2, αMeF(2F)6, 4Pal10, αMeL13, Orn16, Aib20, D-Glu24, αMeY25; acylated K17, K21 (groups as in name); C-terminal amide)
A) > 9.95 µM

Q) Give cAMP EC50 (1.0% HSA) for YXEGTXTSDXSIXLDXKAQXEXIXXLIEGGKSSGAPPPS (Aib2, αMeF(2F)6, 4Pal10, αMeL13, Orn16, Aib20, 3ClPhe22, D-Glu24, αMeY25; acylated K17, K31 (groups as in name); C-terminal amide)
A) > 9.95 µM

Q) Give cAMP EC50 (1.0% HSA) for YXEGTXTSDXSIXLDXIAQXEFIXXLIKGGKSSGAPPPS (Aib2, αMeF(2F)6, 4Pal10, αMeL13, Orn16, Aib20, D-Glu24, αMeY25; acylated K28, K31 (groups as in name); C-terminal amide)
A) > 9.95 µM

Q) Give cAMP EC50 (1.0% HSA) for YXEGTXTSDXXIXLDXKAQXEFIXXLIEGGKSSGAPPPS (Aib2, αMeF(2F)6, 4Pal10, αMeS11, αMeL13, Orn16, Aib20, D-Glu24, αMeY25; acylated K17, K31 (groups as in name); C-terminal amide)
A) > 9.95 µM

Q) Give cAMP EC50 (1.0% HSA) for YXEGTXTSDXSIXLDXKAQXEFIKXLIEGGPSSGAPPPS (Aib2, αMeF(2F)6, 4Pal10, αMeL13, Orn16, Aib20, αMeY25; acylated K17, K24 (groups as in name); C-terminal amide)
A) > 9.95 µM
